molecular target: metabotropic glutamate receptor subtype 5 (Rattus norvegicus (Rat), UniProt P31424)
Sequence (P31424 21-1203): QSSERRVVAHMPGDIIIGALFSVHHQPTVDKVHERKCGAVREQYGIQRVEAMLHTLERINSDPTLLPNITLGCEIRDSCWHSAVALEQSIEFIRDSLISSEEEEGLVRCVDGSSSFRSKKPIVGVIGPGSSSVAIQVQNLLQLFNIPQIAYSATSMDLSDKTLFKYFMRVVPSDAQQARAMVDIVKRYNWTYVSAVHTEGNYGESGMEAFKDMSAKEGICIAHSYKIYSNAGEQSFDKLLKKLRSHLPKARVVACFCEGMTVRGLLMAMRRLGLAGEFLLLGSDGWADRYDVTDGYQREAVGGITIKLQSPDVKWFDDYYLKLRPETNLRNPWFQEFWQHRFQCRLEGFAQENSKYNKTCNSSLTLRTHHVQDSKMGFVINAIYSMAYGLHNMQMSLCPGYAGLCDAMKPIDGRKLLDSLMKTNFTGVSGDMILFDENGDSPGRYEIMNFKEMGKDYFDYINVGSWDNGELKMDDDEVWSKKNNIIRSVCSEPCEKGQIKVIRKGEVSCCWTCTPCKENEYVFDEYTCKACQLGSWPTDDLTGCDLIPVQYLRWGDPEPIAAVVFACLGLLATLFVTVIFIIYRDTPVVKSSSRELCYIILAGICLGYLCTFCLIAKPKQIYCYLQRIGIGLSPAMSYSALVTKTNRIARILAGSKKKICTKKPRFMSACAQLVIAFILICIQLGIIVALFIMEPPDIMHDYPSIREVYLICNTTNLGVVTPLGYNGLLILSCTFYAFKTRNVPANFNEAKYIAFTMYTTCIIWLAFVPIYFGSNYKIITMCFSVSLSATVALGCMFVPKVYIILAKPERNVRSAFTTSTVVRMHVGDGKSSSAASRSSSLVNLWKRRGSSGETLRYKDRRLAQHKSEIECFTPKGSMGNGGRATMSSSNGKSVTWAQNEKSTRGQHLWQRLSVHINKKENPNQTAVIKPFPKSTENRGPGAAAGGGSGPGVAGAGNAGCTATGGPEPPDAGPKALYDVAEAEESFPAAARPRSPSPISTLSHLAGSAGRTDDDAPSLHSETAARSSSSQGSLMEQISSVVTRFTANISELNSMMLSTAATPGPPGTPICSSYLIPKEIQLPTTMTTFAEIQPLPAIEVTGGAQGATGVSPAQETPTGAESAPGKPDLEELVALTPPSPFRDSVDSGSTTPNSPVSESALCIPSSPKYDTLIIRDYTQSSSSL
readout_label: Ki (nM)

Cc1nc(C#Cc2ccc(-c3cccc(C(F)(F)F)c3)nc2)cs1 [Example 77] :: 13
CCCN(C)c1ccc(C#Cc2csc(C)n2)cn1 [Example 86] :: 7

a = Cc1nc(C#Cc2ccc(-c3ccc(F)c(F)c3)nc2)cs1 [Example 45]
b = Cc1nc(C#Cc2ccc(-n3ccc4cccnc43)nc2)cs1 [Example 17]
c = Cc1cc(C#N)cc(-c2ccc(C#Cc3csc(C)n3)cn2)c1 [Example 34]
List from greatest to least Ki. Hello, could you send the labels back in the order asked? Thank you. c, a, b

A = Cc1nc(C#Cc2ccc(N3CCCCCC3)nc2)cs1 [Example 57]
B = Cc1nc(C#Cc2ccc(-c3cccc4ncccc34)nc2)cs1 [Example 35]
C = Cc1nc(C#Cc2cnc(N3CCCCC3)nc2)cs1 [Example 24]
D = Cc1nc(C#Cc2cnc(-c3ccccc3C)nc2)cs1 [Example 13]
E = Cc1ccc(F)c(-c2ccc(C#Cc3csc(C)n3)cn2)c1 [Example 54]
Falling order of Ki, please. Returns: the labels arranged in the requested order. A, B, C, E, D
(A: 7.5 nM, B: 5 nM, C: 2.6 nM, E: 1.5 nM, D: 0.6 nM)

1 = Cc1nc(C#Cc2cncc(Nc3cccnc3)c2)cs1 [Example 41]
2 = Cc1nc(C#Cc2cnc(NC(C)(C)C)nc2)cs1 [Example 22]
Which of the two gives a bigger number for Ki: 1 or 2 ? # reply format: chosen label 1

A = Cc1nc(C#Cc2cnc(N3CCCC(CO)C3)nc2)cs1 (stereo not drawn) [Example 92]
B = COc1ccc(C#N)cc1-c1ccc(C#Cc2csc(C)n2)cn1 [Example 37]
C = Cc1nc(C#Cc2ccc(NC3CCC3)nc2)cs1 [Example 42]
Order these by Ki, descending, and give the full ranking. State the ranking by listing the labels in the requested order. C, B, A

* * *

target: metabotropic glutamate receptor subtype 5 (Rattus norvegicus (Rat), UniProt P31424)
readout_label: Ki (nM)

CCC(C)Sc1ccc(C#Cc2csc(C)n2)cn1 (stereo not drawn) :: 12
Cc1nc(C#Cc2ccc(-c3c(C)cccc3C)nc2)cs1 :: 3
Cc1nc(C#Cc2ccc(N3CCC(F)CC3)nc2)cs1 :: 4
Cc1nc(C#Cc2ccc(-n3ccc4ccncc43)nc2)cs1 :: 19.3
CCc1ccccc1-c1ccc(C#Cc2csc(C)n2)cn1 :: 4

1 = COc1ccc(C)cc1-c1ccc(C#Cc2csc(C)n2)cn1
2 = Cc1nc(C#Cc2cncc(C3CC3)c2)cs1
3 = Cc1ccc(C)c(-c2ccc(C#Cc3csc(C)n3)cn2)c1
4 = COCc1ccccc1-c1ccc(C#Cc2csc(C)n2)cn1
Would you mind ranking these compounds by ascending Ki? Write the labels, ordered according to the request. 2, 4, 3, 1
(2: 3 nM, 4: 4.5 nM, 3: 8 nM, 1: 19 nM)

* * *

target: hmGluR5 (Homo sapiens (Human), UniProt P41594); assay: Phosphatidylinositol Hydrolysis (IP) Assay; settings: hmGluR5/L38-20 cells
Sequence (P41594 other isoform, or with tags, fused parts or gaps): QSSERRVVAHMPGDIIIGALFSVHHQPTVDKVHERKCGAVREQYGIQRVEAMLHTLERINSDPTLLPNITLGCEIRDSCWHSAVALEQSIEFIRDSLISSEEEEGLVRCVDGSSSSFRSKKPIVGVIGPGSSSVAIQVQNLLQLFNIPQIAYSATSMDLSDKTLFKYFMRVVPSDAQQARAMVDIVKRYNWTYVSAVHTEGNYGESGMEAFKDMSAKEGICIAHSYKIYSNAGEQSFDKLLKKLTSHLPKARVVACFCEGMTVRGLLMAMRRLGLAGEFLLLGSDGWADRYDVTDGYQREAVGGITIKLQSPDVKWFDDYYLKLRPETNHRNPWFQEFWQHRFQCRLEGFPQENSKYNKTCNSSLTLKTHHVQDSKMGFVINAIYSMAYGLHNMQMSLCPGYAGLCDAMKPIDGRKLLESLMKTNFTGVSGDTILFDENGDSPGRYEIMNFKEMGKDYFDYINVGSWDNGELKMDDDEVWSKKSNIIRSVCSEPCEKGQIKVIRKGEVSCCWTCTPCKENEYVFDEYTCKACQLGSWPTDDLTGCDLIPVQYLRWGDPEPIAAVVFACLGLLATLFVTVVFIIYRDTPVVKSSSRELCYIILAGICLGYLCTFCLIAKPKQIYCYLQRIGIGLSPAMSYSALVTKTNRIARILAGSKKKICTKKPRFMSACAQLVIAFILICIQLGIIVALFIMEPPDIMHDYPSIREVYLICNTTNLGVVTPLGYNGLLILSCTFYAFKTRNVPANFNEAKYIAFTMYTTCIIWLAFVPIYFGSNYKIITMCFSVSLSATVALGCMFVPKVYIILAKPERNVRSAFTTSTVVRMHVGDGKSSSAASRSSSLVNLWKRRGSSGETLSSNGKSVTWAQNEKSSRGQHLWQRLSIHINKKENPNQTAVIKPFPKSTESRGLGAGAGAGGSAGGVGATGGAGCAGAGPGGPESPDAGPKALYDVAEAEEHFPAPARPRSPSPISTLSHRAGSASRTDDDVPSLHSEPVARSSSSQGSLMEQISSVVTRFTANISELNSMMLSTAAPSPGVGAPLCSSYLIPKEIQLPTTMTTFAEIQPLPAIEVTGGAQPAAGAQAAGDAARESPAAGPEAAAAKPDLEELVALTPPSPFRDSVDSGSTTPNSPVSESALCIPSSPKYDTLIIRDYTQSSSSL
Listed below: pIC50 values for each entry.
API: returns pIC50 as number; meaning -log10 of concentration in mol/L.

Look at this molecule and give its reported pIC50. "Cc1nc(C#Cc2ccc(-n3ccc4ccncc43)nc2)cs1" 8.70

Query (molecule): "Cc1nc(C#Cc2ccc(-c3cc(F)cc(C#N)c3)nc2)cs1" ; field requested: pIC50 7.48
